System: corn (Zea mays)
measurement description: Test A postemergence, corn
Format: in vivo
study conditions: 125 g ai/ha, visual injury, 0 to 100 scale (0 no effect, 100 complete control), approximately 10 days

[
  {
    "compound": "O=C1NCC(c2cccc(Cn3ccc(C(F)(F)F)n3)c2)C1C(=O)Nc1ccccc1F (centres unmarked)",
    "assayed target": "corn (Zea mays)",
    "Plant response rating, Corn": 0
  },
  {
    "compound": "O=C1NCC(c2cccc(COc3ccccc3)c2)C1C(=O)Nc1ccc(F)cc1F (centres unmarked)",
    "assayed target": "corn (Zea mays)",
    "Plant response rating, Corn": 0
  },
  {
    "compound": "O=C1NCC(c2cccc(COc3ccccc3)c2)C1C(=O)Nc1ccccc1Cl (centres unmarked)",
    "assayed target": "corn (Zea mays)",
    "Plant response rating, Corn": 0
  },
  {
    "compound": "O=C1NCC(c2ccccc2Cn2ccc(C(F)(F)F)n2)C1C(=O)Nc1cccc(F)c1F (centres unmarked)",
    "assayed target": "corn (Zea mays)",
    "Plant response rating, Corn": 30
  },
  {
    "compound": "CN1CC(c2cccc(OC(F)(F)C(F)OC(F)(F)F)c2)C(C(=O)Nc2cccc(F)c2F)C1=O (centres unmarked)",
    "assayed target": "corn (Zea mays)",
    "Plant response rating, Corn": 0
  },
  {
    "compound": "O=C1NCC(c2cccc(Oc3ncc(Cl)cn3)c2)C1C(=O)Nc1ccccc1F (centres unmarked)",
    "assayed target": "corn (Zea mays)",
    "Plant response rating, Corn": 0
  },
  {
    "compound": "O=C1NCC(c2cccc(COc3ccccc3)c2)C1C(=O)Nc1ccc(F)c(F)c1F (centres unmarked)",
    "assayed target": "corn (Zea mays)",
    "Plant response rating, Corn": 0
  },
  {
    "compound": "CN1CC(c2cccc(Oc3ccc(F)cc3)c2)C(C(=O)Nc2cccc(F)c2F)C1=O (single isomer, unassigned)",
    "assayed target": "corn (Zea mays)",
    "Plant response rating, Corn": 40
  },
  {
    "compound": "CN1CC(c2cccc(Oc3ccc(C(F)(F)F)cn3)c2)C(C(=O)Nc2cccc(F)c2F)C1=O (single isomer, unassigned)",
    "assayed target": "corn (Zea mays)",
    "Plant response rating, Corn": 40
  },
  {
    "compound": "CN1CC(c2cccc(OC(F)(F)C(F)OC(F)(F)F)c2)C(C(=O)Nc2ccccc2F)C1=O (centres unmarked)",
    "assayed target": "corn (Zea mays)",
    "Plant response rating, Corn": 0
  },
  {
    "compound": "CN1CC(c2cccc(Oc3ncc(F)cc3F)c2)C(C(=O)Nc2ccccc2F)C1=O (single isomer, unassigned)",
    "assayed target": "corn (Zea mays)",
    "Plant response rating, Corn": 20
  },
  {
    "compound": "O=C1NCC(c2cccc(Cn3ccc(C(F)(F)F)n3)c2)C1C(=O)Nc1ccc(F)c(F)c1F (centres unmarked)",
    "assayed target": "corn (Zea mays)",
    "Plant response rating, Corn": 0
  },
  {
    "compound": "O=C1NCC(c2cccc(OCC3OCCO3)c2)C1C(=O)Nc1ccccc1F (centres unmarked)",
    "assayed target": "corn (Zea mays)",
    "Plant response rating, Corn": 0
  },
  {
    "compound": "CN1CC(c2cccc(Oc3ccc(F)cn3)c2)C(C(=O)Nc2cccc(F)c2C#N)C1=O (single isomer, unassigned)",
    "assayed target": "corn (Zea mays)",
    "Plant response rating, Corn": 0
  },
  {
    "compound": "O=C1NCC(c2cccc(OCc3ccccc3)c2)C1C(=O)Nc1ccc(F)cc1F (centres unmarked)",
    "assayed target": "corn (Zea mays)",
    "Plant response rating, Corn": 0
  },
  {
    "compound": "O=C1NCC(c2cccc(OC(F)(F)C(F)OC(F)(F)F)c2)C1C(=O)Nc1ccccc1F (centres unmarked)",
    "assayed target": "corn (Zea mays)",
    "Plant response rating, Corn": 0
  },
  {
    "compound": "O=C1NCC(c2cccc(OCc3ccccc3)c2)C1C(=O)Nc1ccc(F)c(F)c1F (centres unmarked)",
    "assayed target": "corn (Zea mays)",
    "Plant response rating, Corn": 0
  },
  {
    "compound": "O=C1NCC(c2cccc(Oc3ncc(F)cc3F)c2)C1C(=O)Nc1cccc(F)c1F (single isomer, unassigned)",
    "assayed target": "corn (Zea mays)",
    "Plant response rating, Corn": 20
  },
  {
    "compound": "O=C1NCC(c2cccc(Oc3ncc(Cl)cn3)c2)C1C(=O)Nc1cccc(F)c1F (centres unmarked)",
    "assayed target": "corn (Zea mays)",
    "Plant response rating, Corn": 0
  },
  {
    "compound": "O=C1NCC(c2cccc(OCC3CC3)c2)C1C(=O)Nc1ccccc1F (centres unmarked)",
    "assayed target": "corn (Zea mays)",
    "Plant response rating, Corn": 0
  },
  {
    "compound": "O=C1NCC(c2cccc(Cn3cccn3)c2)C1C(=O)Nc1ccccc1Cl (centres unmarked)",
    "assayed target": "corn (Zea mays)",
    "Plant response rating, Corn": 0
  },
  {
    "compound": "O=C1NCC(c2cccc(OCC3OCCO3)c2)C1C(=O)Nc1ccccc1C(F)(F)F (centres unmarked)",
    "assayed target": "corn (Zea mays)",
    "Plant response rating, Corn": 0
  },
  {
    "compound": "O=C1NCC(c2cccc(Cn3ccc(C(F)(F)F)n3)c2)C1C(=O)Nc1ccc(F)cc1F (centres unmarked)",
    "assayed target": "corn (Zea mays)",
    "Plant response rating, Corn": 0
  },
  {
    "compound": "O=C1NCC(c2ccccc2Cn2ccc(C(F)(F)F)n2)C1C(=O)Nc1ccccc1F (centres unmarked)",
    "assayed target": "corn (Zea mays)",
    "Plant response rating, Corn": 0
  },
  {
    "compound": "O=C1NCC(c2cccc(Oc3ccc(C(F)(F)F)cn3)c2)C1C(=O)Nc1cccc(F)c1F (single isomer, unassigned)",
    "assayed target": "corn (Zea mays)",
    "Plant response rating, Corn": 20
  },
  {
    "compound": "O=C1NCC(c2cccc(Oc3ccccn3)c2)C1C(=O)Nc1ccccc1F (centres unmarked)",
    "assayed target": "corn (Zea mays)",
    "Plant response rating, Corn": 0
  }
]

Hello, the source for this data is patent US10405547B2, in case you need it.
